- assayed_system: Tyrosine-protein kinase ABL1 (Homo sapiens, UniProt P00519)
- Sequence (P00519 whole entry, the tested form may be a part): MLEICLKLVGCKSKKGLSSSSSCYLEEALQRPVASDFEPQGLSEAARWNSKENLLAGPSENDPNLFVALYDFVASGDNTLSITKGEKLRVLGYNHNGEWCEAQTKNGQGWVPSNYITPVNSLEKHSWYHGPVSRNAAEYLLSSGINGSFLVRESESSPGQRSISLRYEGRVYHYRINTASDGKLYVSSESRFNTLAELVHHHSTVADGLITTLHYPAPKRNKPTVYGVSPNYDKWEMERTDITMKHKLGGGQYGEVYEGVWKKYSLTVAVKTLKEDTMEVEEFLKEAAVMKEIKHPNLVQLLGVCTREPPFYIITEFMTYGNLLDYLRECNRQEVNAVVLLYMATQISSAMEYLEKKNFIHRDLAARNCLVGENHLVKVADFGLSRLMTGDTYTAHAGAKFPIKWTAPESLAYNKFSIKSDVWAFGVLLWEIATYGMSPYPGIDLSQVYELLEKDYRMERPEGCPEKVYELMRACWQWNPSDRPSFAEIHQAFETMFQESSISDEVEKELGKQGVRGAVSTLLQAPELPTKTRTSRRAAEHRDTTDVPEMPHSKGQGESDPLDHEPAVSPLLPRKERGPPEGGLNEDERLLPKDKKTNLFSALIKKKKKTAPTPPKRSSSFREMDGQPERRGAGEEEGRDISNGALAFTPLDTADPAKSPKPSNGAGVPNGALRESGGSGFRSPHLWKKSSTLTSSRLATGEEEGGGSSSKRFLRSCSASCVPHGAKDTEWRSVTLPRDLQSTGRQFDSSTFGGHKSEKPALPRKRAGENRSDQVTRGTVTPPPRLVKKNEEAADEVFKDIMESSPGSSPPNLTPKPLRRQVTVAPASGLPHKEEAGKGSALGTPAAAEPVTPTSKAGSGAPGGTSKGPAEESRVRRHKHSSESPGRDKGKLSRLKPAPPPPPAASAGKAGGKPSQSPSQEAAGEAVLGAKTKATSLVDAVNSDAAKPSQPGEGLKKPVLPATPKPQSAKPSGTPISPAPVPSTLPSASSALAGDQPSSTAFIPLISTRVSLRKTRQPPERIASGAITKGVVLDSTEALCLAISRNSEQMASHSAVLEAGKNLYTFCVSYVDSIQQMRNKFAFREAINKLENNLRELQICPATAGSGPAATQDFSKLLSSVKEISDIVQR
- test_details: Inhibition of NanoLuc-fused ABL1 (unknown origin) expressed in human HEK293 cells incubated for 2 to 3 mins by NanoBRET assay
pEC50: −log10 of the molar value.
property_label: pEC50

>>> numeric_value("Nc1n[nH]c2cccc(C#Cc3cccc(NC(=O)c4ccc(N5CCOCC5)c(C(F)(F)F)c4)c3)c12")
7.84

* * *

- test_details: Oral bioavailability in ICR mouse at 10 mg/kg measured up to 8 hrs by LC-MS/MS analysis
- Assay type: ADME, organism-based
- test_conditions: in vivo
property_label: bioavailability

>>> result("Nc1n[nH]c2cccc(C#Cc3cccc(NC(=O)c4ccc(N5CCOCC5)c(C(F)(F)F)c4)c3)c12")
"0.6%"

* * *

- assayed_system: Proto-oncogene tyrosine-protein kinase Src (Homo sapiens)
- Sequence (P12931 2-536 limits assumed): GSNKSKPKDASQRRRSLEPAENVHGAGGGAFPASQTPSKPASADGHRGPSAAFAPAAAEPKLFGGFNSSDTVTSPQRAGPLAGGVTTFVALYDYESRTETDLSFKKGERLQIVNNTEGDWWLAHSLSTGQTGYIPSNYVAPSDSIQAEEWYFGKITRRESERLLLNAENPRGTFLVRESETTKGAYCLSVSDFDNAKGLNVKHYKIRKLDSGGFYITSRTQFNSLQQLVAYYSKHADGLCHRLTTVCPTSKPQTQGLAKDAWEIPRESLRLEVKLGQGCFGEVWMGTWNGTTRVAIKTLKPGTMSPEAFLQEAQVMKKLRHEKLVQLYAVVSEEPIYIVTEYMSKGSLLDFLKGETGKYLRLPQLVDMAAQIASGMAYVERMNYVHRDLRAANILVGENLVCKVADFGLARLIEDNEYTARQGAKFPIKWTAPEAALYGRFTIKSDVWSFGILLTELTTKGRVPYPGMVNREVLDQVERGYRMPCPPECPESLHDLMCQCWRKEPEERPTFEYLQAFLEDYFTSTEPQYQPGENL
pIC50: −log10 of the molar value.
property_label: pIC50

>>> numeric_value("Nc1n[nH]c2cccc(C#Cc3cccc(NC(=O)c4ccc(N5CCOCC5)c(C(F)(F)F)c4)c3)c12")
7.18

* * *

- test_details: Mean residence time in ICR mouse at 10 mg/kg, po measured up to 8 hrs by LC-MS/MS analysis
- Type: ADME, organism-based
- test_conditions: in vivo
property_label: MRT (h)

>>> numeric_value("Nc1n[nH]c2cccc(C#Cc3cccc(NC(=O)c4ccc(N5CCOCC5)c(C(F)(F)F)c4)c3)c12")
1.3

* * *

- test_details: Clearance in ICR mouse at 5 mg/kg, iv measured up to 8 hrs by LC-MS/MS analysis
- Format: ADME, organism-based
- test_conditions: in vivo
property_label: clearance (mL/min/kg)

>>> numeric_value("Nc1n[nH]c2cccc(C#Cc3cccc(NC(=O)c4ccc(N5CCOCC5)c(C(F)(F)F)c4)c3)c12")
5

* * *

- System: K562
- test_details: Antiproliferative activity against human K562 cells assessed as cell growth inhibition incubated for 72 hrs by MTT assay
- Assay type: functional
property_label: GI50

>>> result("CN1CCN(c2ccc(C(=O)Nc3cccc(C#Cc4cccc5[nH]nc(N)c45)c3)cc2C(F)(F)F)CC1")
"1.48 µM"
>>> result("Nc1n[nH]c2cccc(C#Cc3cccc(NC(=O)c4cc(N5CCOCC5)cc(C(F)(F)F)c4)c3)c12")
"2.21 µM"
>>> result("Nc1n[nH]c2cccc(C#Cc3cccc(C(=O)Nc4ccc(Cl)c(C(F)(F)F)c4)c3)c12")
"3.81 µM"
>>> result("Nc1n[nH]c2cccc(C#Cc3cccc(NC(=O)c4cc(F)cc(C(F)(F)F)c4)c3)c12")
"2.14 µM"

* * *

- System: K562
- test_details: Antiproliferative activity against human K562 cells assessed as cell growth inhibition incubated for 72 hrs by MTT assay
- Format: functional
Threshold check on GI50: strictly below 800 nM is t; on or above 800 nM is f.

>>> discrete_label("Nc1n[nH]c2cccc(C#Cc3cccc(C(=O)Nc4cc(CN5CCOCC5)cc(C(F)(F)F)c4)c3)c12")
"f"
>>> discrete_label("Nc1n[nH]c2cccc(C#Cc3cccc(NC(=O)c4cccc(C(F)(F)F)c4)c3)c12")
"f"
>>> discrete_label("Nc1n[nH]c2cccc(C#Cc3cccc(NC(=O)c4ccc(N5CCOCC5)c(C(F)(F)F)c4)c3)c12")
"t"
>>> discrete_label("Cc1ccc(C(=O)Nc2cccc(C#Cc3cccc4[nH]nc(N)c34)c2)cc1C(F)(F)F")
"f"
>>> discrete_label("Nc1n[nH]c2cccc(C#Cc3cccc(NC(=O)c4cc(C(F)(F)F)cc(C(F)(F)F)c4)c3)c12")
"f"
>>> discrete_label("Nc1n[nH]c2cccc(C#Cc3cccc(C(=O)Nc4cc(C(F)(F)F)cc(C(F)(F)F)c4)c3)c12")
"t"
>>> discrete_label("Cc1cn(-c2cc(C(=O)Nc3cccc(C#Cc4cccc5[nH]nc(N)c45)c3)cc(C(F)(F)F)c2)cn1")
"t"
>>> discrete_label("Nc1n[nH]c2cccc(C#Cc3cccc(C(=O)Nc4ccc(CN5CCOCC5)c(C(F)(F)F)c4)c3)c12")
"t"
>>> discrete_label("CN1CCN(Cc2cc(NC(=O)c3cccc(C#Cc4cccc5[nH]nc(N)c45)c3)cc(C(F)(F)F)c2)CC1")
"t"
>>> discrete_label("Nc1n[nH]c2cccc(C#Cc3cccc(C(=O)Nc4cccc(C(F)(F)F)c4)c3)c12")
"f"
>>> discrete_label("Cc1cn(-c2cc(NC(=O)c3cccc(C#Cc4cccc5[nH]nc(N)c45)c3)cc(C(F)(F)F)c2)cn1")
"t"
